Experimental system: Muscarinic acetylcholine receptor M4 (Homo sapiens)
Sequence (whole entry): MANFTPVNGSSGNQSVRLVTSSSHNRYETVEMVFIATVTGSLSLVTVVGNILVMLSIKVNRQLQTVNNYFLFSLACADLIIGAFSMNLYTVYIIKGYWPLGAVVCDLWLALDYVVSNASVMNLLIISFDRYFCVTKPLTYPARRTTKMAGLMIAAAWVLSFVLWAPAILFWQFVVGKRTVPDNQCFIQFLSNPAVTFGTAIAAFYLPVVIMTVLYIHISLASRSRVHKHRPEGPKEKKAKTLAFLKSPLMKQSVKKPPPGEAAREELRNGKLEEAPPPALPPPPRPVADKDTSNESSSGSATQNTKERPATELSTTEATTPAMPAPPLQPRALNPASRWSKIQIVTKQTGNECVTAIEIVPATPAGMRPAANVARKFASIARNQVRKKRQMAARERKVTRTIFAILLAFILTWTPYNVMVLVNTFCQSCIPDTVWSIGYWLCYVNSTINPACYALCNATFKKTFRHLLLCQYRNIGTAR
Assay protocol: Positive allosteric modulation of human muscarinic M4 receptor expressed in CHO cells co-expressing Gqi5 assessed as increase in acetylcholine-induced calcium mobilization relative to acetylcholine
Format: functional, cell-based
Give measured %max for each item. Keep answers brief.
Report the figure in % without appending any unit label.

Ask: What value of %max has been recorded for this entry: Cc1c2c(N)c(C(=O)NC3CN(c4ccc(C(F)(F)F)nc4)C3)ccc2nn1C
Result: 80

Ask: Param item: Cn1nnc2ccc(C(=O)NC3CN(c4ccc(C#N)cn4)C3)c(N)c21
Result: 60

Ask: Repeat with Cn1nnc2ccc3c(NC4CN(c5cc(Cl)ncc5Cl)C4)ncnc3c21
Result: 81

Ask: And then Cn1nnc2ccc(C(=O)NC3CN(c4ncc(F)cc4Cl)C3)c(N)c21 , what is it?
Result: 80

Ask: Follow-up entry: Cn1nnc2ccc(C(=O)NC3CN(c4ncc(Cl)cc4F)C3)c(N)c21
Result: 65

Ask: Proceed to Cn1nnc2ccc(C(=O)NC3CN(c4ccnc(C(F)(F)F)c4)C3)c(N)c21
Result: 79

Ask: Also check Cc1c2c(ccc3c(NC4CCCC4)ncnc32)nn1C
Result: 76

Ask: And Cn1nnc2ccc(C(=O)NC3CN(c4cc(Cl)ncc4Cl)C3)c(N)c21 ?
Result: 63

Ask: Do the same for Cc1c2c(ccc3c(N4CCCC4)ncnc32)nn1C please
Result: 74

Ask: What do you have for Cc1c2c(N)c(C(=O)NC3CN(c4ncc(F)cn4)C3)ccc2nn1C ?
Result: 90

Ask: Moving on to Cc1c2c(N)c(C(=O)NC3CN(c4cc(Cl)ncc4Cl)C3)ccc2nn1C
Result: 86

Ask: Please give the result for Cc1c2c(ccc3c(NCc4ccc(C(=O)NCC(C)(C)C)cc4)ncnc32)nn1C too.
Result: 90

Ask: What do you get for Cc1c2c(N)c(C(=O)NC3CN(c4ncc(C#N)cc4Cl)C3)ccc2nn1C ?
Result: 93

Ask: Similarly, Cc1c2c(ccc3c(NC4CN(c5cc(Cl)ncc5Cl)C4)ncnc32)nn1C ?
Result: 101

Ask: Here is the next molecule: Cc1c2c(ccc3c(NCc4ccc(F)c(F)c4)ncnc32)nn1C
Result: 86

Ask: Next molecule: Cc1c2c(N)c(C(=O)NC3CN(c4ncccc4F)C3)ccc2nn1C
Result: 103
